This collection of values is drawn from patent US4873243A.

# test-system: GABA post-synaptic receptor
# experimental-details: Displacement of tritiated GABA from its post-synaptic receptor (Enna and Snyder method), suspension of synaptic membrane
# Format: binding
# particulars: in vitro, tritiated GABA 2.9 nM final concentration, read-out: IC50 (concentration which inhibits 50% of the fixation of the GABA on its post-synaptic receptor)
Where a name gives a salt, the structure may show the parent alone.
Quick reference for pIC50 among some molecules
Hey, just a heads up that pIC50 is the negative log base 10 of the concentration in molar.

Consider the following illustrative entries.
Checklist item: pIC50 tested on GABA post-synaptic receptor, entry Cc1nn(Cc2cc(O)ns2)c(=N)cc1-c1ccccc1 , value?
5.18

How about N=c1c2ccccc2c(-c2ccccc2)nn1Cc1cc(O)no1 ?
6.92

Lookup N=c1ccc(-c2ccc(Cl)cc2)nn1Cc1cc(O)ns1 [SR 95885, hydrobromide]
6.82

# repeat for N=c1ccc(-c2ccc3c(c2)OCO3)nn1Cc1cc(O)no1
7.12

Here is the next molecule: Cc1cc(-c2ccccc2)nn(Cc2cc(O)no2)c1=N [SR 95538, hydrobromide]
6.00

Let's switch to this molecule now.
API: value(readout=pIC50, system=GABA post-synaptic receptor) for record N=c1ccc(-c2ccsc2)nn1Cc1cc(O)no1
5.80

* * *

# test-system: GABA post-synaptic receptor
# experimental-details: Displacement of tritiated GABA from its post-synaptic receptor (Enna and Snyder method), suspension of synaptic membrane
# Type: binding
# particulars: in vitro, tritiated GABA 2.9 nM final concentration, listed as 95812, read-out: IC50 (concentration which inhibits 50% of the fixation of the GABA on its post-synaptic receptor)
reported-property: IC50
Don't forget the unit after the number, please.

What value of IC50 has been reported for the following molecule? N=c1ccc(-c2ccccc2)nn1Cc1cc(O)no1 [SR 95812]
1.2 µM
